Assay: DNDI: Cytotoxicity against L929 mouse fibroblasts, 72 hour.
Type: toxicity, cell-based
Conditions: mouse, L929 mouse fibroblasts
measurement kind: IC50 at 72 h (µg/mL)
Note: unit µg/mL is implicit; provide only the numeric part.

// below: answered compounds
CCCCc1ccc(-c2nc(CNC3CCCCC3)co2)cc1: 1.44
O/N=C(\NC1CCCCC1)c1ccccc1Cc1ccccc1: 4.57
CCOc1ccc(-c2nc(CCl)co2)cc1: 25.9

Okay, next one:
So for "Clc1ccc(-c2nc(CNc3ccccc3)co2)cc1" , the logged IC50 at 72 h turned out to be 10.5

----------
Assay: in vitro
Conditions: human, microsomes, CLint in vitro
Description: DNDI: in vitro intrinsic clearance in human liver microsomes at a concentration of 1uM
measurement kind: microsomal CLint at 1 µM (µL/min/mg)
Note: unit µL/min/mg is implicit; provide only the numeric part.

CCCCc1ccc(-c2nc(CNC3CCCCCC3)co2)cc1: 18

Okay, next one:
So for "CCCCc1ccc(-c2nc(CN[C@@H]3C[C@@H]4C[C@H]([C@H]3C)C4(C)C)co2)cc1" , the logged microsomal CLint at 1 µM turned out to be 10

----------
Experiment: in vitro
Conditions: mouse, microsomes, t (1 / 2)
Description: DNDI: half life in mouse liver microsomes at a concentration of 1uM
Reported values of half-life at 1 µM for individual entries
Note: unit min is implicit; provide only the numeric part.

// below: answered compounds
O/N=C(\NC1CCCCC1)c1c(F)cccc1F: 104
O/N=C(\NC1CCCCC1)c1ccccc1: 8
CCCCCC(C)NCc1coc(-c2ccc(OC(C)C)cc2)n1 (configuration not stated): 35
CCCCCC(C)NCc1coc(-c2ccc(CCCC)cc2)n1 (configuration not stated): 73
O/N=C(/NC1CCCCC1)c1cccnc1Oc1ccccc1: 2

So for "O/N=C(\NCC1CC1)c1ccccc1-c1ccccc1" , the logged half-life at 1 µM turned out to be 9

So for "CCCCc1ccc(-c2nc(CN[C@@H]3C[C@@H]4C[C@H]([C@H]3C)C4(C)C)co2)cc1" , the logged half-life at 1 µM turned out to be 13

----------
Assay: DNDI: Cytotoxicity against L929 mouse fibroblasts, 72 hour.
Format: toxicity, cell-based
Settings: mouse, L929 mouse fibroblasts
measurement kind: IC50 at 72 h (µg/mL)
Note: unit µg/mL is implicit; provide only the numeric part.

CCCCCC(C)NCc1coc(-c2cccc3ccccc23)n1 (stereo unspecified): 6.56
CCCCCC(C)NCc1cc(-c2ccccc2)nn1C (stereo unspecified): 12.7
CCCCCOc1ccc(-c2nc(CNCCC3CCCN3C)co2)cc1 (stereo unspecified): 1.21
CCCCc1ccc(-c2nc(CNCCc3cnc[nH]3)co2)cc1: 2.43

So for CCCCCC(C)NCc1coc(-c2ccc(OC3CCCC3)cc2)n1 (stereo unspecified) , the logged IC50 at 72 h turned out to be 1.38

So for CCCCCC(C)NCc1coc(-c2ccc(Oc3ccc(Cl)cc3)cc2)n1 (stereo unspecified) , the logged IC50 at 72 h turned out to be 2.07

----------
Assay: DNDI: Cytotoxicity against L929 mouse fibroblasts, CYTO-SP, 24 hour
Assay type: toxicity, cell-based
Settings: mouse, L929 mouse fibroblasts
Reported values of IC50 at 24 h for individual entries

// below: answered compounds
CCCCCC(C)NCc1coc(-c2cccc(F)c2F)n1 (stereo not drawn): > 50 µg/mL
COc1cccc(-c2noc(C(C)C)n2)c1: > 50 µg/mL
CCOc1ccc(-c2nc(CNC[C@@H]3CC[C@H]4C[C@@H]3C4(C)C)co2)cc1: 45.2 µg/mL
Cc1cc(C)cc(Oc2ccc(/C(=N/O)NCC(C)(C)C)cn2)c1: > 50 µg/mL
O/N=C(/c1ccccc1-c1ccccc1)n1ccnc1: > 50 µg/mL

So for CCCCCC(C)NCc1coc(-c2ccccc2OC(F)(F)F)n1 (stereo not drawn) , the logged IC50 at 24 h turned out to be 37 µg/mL

So for "C[C@@H]1[C@H]2C[C@@H](C[C@H]1NCc1coc(-c3ccc(C(C)(C)C)cc3)n1)C2(C)C" , the logged IC50 at 24 h turned out to be > 50 µg/mL
